{"columns": ["Compound", "melting point"],
 "data": [
  ["COC(=O)C1=C(C)NC(C)=C(C(=O)N2CCC3(CC2)CC(=O)N(OC)C3=O)C1c1cccc([N+](=O)[O-])c1 (stereo unspecified)", "228 to 230 °C"],
  ["CCCc1nc2c(N)nc3ccccc3c2n1CCOCCCS(C)(=O)=O", "149 to 151 °C"],
  ["O=C(O)C(CCOc1ccccc1)CCOc1ccccc1", "85 to 86 °C"],
  ["COc1ccc(Sc2cnnc3ccccc23)cc1", "163 °C"],
  ["Cc1[nH]nc(NC2CCCCC2)c1C(=O)O", "162 to 163 °C"],
  ["COc1ccc(-c2cc(=O)n(CCc3ccccc3)nc2-c2ccc(OC)cc2)cc1", "140 °C"]
]}
